# EXPERIMENTAL SYSTEM: T1, human calcitonin receptor (human, UniProt P30988 25-474)
# T1 construct: whole, on cells; also called hCTR; hCT
# T1 sequence (looked up): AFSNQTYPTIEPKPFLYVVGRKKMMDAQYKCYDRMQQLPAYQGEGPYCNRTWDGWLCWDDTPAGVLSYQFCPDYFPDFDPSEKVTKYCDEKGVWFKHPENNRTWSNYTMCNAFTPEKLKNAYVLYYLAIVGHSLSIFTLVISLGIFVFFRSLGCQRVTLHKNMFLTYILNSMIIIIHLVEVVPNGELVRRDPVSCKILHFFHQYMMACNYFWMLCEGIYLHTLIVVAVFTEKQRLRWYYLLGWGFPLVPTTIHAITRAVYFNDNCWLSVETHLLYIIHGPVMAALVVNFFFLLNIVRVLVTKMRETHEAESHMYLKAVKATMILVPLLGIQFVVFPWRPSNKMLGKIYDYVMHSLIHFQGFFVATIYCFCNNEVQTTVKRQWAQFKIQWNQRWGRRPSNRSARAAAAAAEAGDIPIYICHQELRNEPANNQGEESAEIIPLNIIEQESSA
# ASSAY: ratio of IC50 at human calcitonin receptor to IC50 at human amylin receptor (SPA competition assays)
# Protocol: The resulting pellet was resuspended, homogenized and centrifuged (20.000 rpm, 15 min) in a buffer containing 20 mM Na-HEPES and 0.1 mM EDTA (pH 7.4, buffer 2). The resulting pellet was resuspended in buffer 2 and protein concentration was measured (BCA protein Assay, Pierce). The homogenate was kept cold during the whole procedure. […] Samples were analyzed on TopCounter™ (Packard). The IC₅₀ was calculated using (one site binding competition analysis) GraphPad Prism5 as a measure of receptor affinity. […]
Numbered stars: 1 amine (or outer) side, 2 acyl side, 3 side chain; on linkers, the order of the positions; unused ones are H or OH. Bridge positions count the residues as written; N and C are the ends. Side chains are listed from the residue outwards. Ends that are not written are not given here. * marks the point of attachment. C20 diacid = O=C(O)CCCCCCCCCCCCCCCCCCC(=O)*; γGlu = O=C(O)[C@H](CCC(=O)[*:2])N[*:1]
Reported Ratio hCT/hAmylin binding values follow for various binders
Output: the number by itself.

Worked examples, 3 binders total:
>>> observed_measurement("K([γGlu-C20 diacid])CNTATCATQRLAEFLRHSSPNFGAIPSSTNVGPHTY-NH2 (disulfide 2-7)")
21.2
>>> observed_measurement("K([γGlu-γGlu-C20 diacid])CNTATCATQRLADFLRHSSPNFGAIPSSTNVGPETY-NH2 (disulfide 2-7)")
49.8
>>> observed_measurement("K([γGlu-γGlu-C20 diacid])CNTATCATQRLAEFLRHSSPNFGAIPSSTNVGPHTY-NH2 (disulfide 2-7 (inferred))")
27.3

We next turn to a different binder, shown below.
Data request: // lookup Ratio hCT/hAmylin binding for K([γGlu-γGlu-C20 diacid])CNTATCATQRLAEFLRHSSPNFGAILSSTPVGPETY-NH2 (disulfide 2-7 (inferred))
Data returned: 22.6
